property-measured: melting point

Below are worked cases with known answers.
- compound: "O=Cc1cnccc1Cl"
  melting point: "53 to 54 °C"
- compound: "COc1cc2c3c(n(C)c(=O)c2cc1OC)-c1cc(OCc2ccccc2)c(OCc2ccccc2)cc1C3=O"
  melting point: "238 to 240 °C"
- compound: "CC(C)SC(Cc1ccc(OCCN(C)c2nc3ccccc3o2)cc1)C(=O)O (stereo unspecified)"
  melting point: "144 to 145 °C"
- compound: "C[Si](C)(C)c1ccc2cc3c(cc2c1)C(=O)c1ccccc1C3=O"
  melting point: "168 to 170 °C"
- compound: "CC(C)(C)OC(=O)NCc1cccc(OCCC2Oc3ccccc3N(Cc3ccc(Cl)cc3)C2=O)c1 (stereo unspecified)"
  melting point: "114 to 116 °C"

Using the record for `CCCCNc1cc(C(=O)O)cc(S(N)(=O)=O)c1Oc1ccc(N)cc1` , state its measured melting point.
264 °C

Using the record for `Cn1cc(-c2nnn[nH]2)c(=O)c2ccc(F)cc21` , state its measured melting point.
290 to 292 °C

Using the record for `CC(C)(C)OC(=O)NCc1cccc(C(=O)O)n1` , state its measured melting point.
238 to 240 °C
